Source of measurements: paper PMC11625747

ASSAY_TEXT: Cell viability assay on MRC-5 cells
Format: cell-based
ASSAY_SETUP: human, same conditions as antiviral assay
READOUT_TYPE: CC50

Q) For O=C1[C@@H]2[C@H]3CC[C@H](C3)[C@@H]2C(=O)N1C[C@@H]1CCCC[C@H]1CN1CCN(c2nsc3ccccc23)CC1 [Lurasidone, lurasidone] , write its CC50.
A) > 1000 µM

---

TARGET_UNDER_TEST: RdRp SARS-CoV-2 (Severe acute respiratory syndrome coronavirus 2, UniProt P0DTD1)
READOUT_TYPE: IC50

Q) Jot down IC50 (RdRp SARS-CoV-2 (Severe acute respiratory syndrome coronavirus 2, UniProt P0DTD1)) of "O=C1[C@@H]2[C@H]3CC[C@H](C3)[C@@H]2C(=O)N1C[C@@H]1CCCC[C@H]1CN1CCN(c2nsc3ccccc23)CC1" .
A) > 100 µM
